assay target: Serine protease 1 (Bos taurus, UniProt P00760)
assay text: Inhibition against Trypsin
pKi: −log10 of the molar value.
Use 3 as the dividing line for pKi, with the line itself on the satisfied side and lower values as not satisfied.

Before answering, review these 10 worked examples.
N=C(N)Nc1ccc(Br)cc1 not satisfied
CCc1ccc(NC(=N)N)cc1 not satisfied
Cc1ccc(NC(=N)N)cc1 satisfied
N=C(N)Nc1ccc(Cl)cc1 satisfied
N=C(N)Nc1ccc(/C=C/C(=O)O)cc1 not satisfied
N=C(N)Nc1ccccc1 satisfied
Cc1ccccc1NC(=N)N not satisfied
NC(N)=Nc1ccccc1[N+](=O)[O-] satisfied
NC(N)=Nc1cccc(C(F)(F)F)c1 not satisfied
N=C(N)Nc1ccc(C(F)(F)F)cc1 satisfied

Does the reported pKi for COC(=O)c1ccc(NC(=N)N)cc1 fall at or above the 3 mark?
satisfied

Also COc1ccc(NC(=N)N)cc1 ?
not satisfied

Can you check N=C(N)Nc1ccc([N+](=O)[O-])cc1 next?
satisfied

====

assay target: Urokinase-type plasminogen activator (Homo sapiens, UniProt P00749)
assay text: log1/Ki value was calculated against Urokinase-type plasminogen activator
settings: read-out: Log 1/Ki (converted)
In this section we review reported Ki values for a set of molecules.
Value expressed in µM; do not type the unit.

molecule	Ki / µM
N=C(N)Nc1ccc(F)cc1	72.4
N=C(N)Nc1ccc([N+](=O)[O-])cc1	20.6
Cc1ccccc1NC(=N)N	259
Cc1ccc(NC(=N)N)cc1	15.6
N=C(N)Nc1ccc(Br)cc1	30.7

Param readout= Ki; system= Urokinase-type plasminogen activator (Homo sapiens, UniProt P00749); entry= COC(=O)c1ccc(NC(=N)N)cc1 ; returns value.
1450

Can you check N=C(N)Nc1ccccc1 [PHENYLGUANIDINE] next?
20.6

Also NC(N)=Nc1cccc(Cl)c1 ?
61.7

For COc1ccccc1NC(=N)N then?
136

====

assay target: Serine protease 1 (Bos taurus, UniProt P00760)
Sequence (P00760 whole entry): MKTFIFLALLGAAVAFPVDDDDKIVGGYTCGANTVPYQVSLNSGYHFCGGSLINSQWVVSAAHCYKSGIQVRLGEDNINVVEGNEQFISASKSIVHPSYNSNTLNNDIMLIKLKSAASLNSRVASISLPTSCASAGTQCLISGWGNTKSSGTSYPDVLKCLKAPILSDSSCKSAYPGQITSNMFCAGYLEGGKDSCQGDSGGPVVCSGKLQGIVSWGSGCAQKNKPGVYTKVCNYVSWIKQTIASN
assay text: log1/Ki value was calculated against Trypsin
settings: read-out: Log 1/Ki (converted)
The label true is reserved for Ki strictly under 400 µM; false covers values equal to or above it.

Example results:
Cc1ccc(NC(=N)N)cc1 true
COc1ccc(NC(=N)N)cc1 false
N=C(N)Nc1ccc(/C=C/C(=O)O)cc1 false
N=C(N)Nc1ccccc1 true
CCc1ccc(NC(=N)N)cc1 false
N=C(N)Nc1ccc(Br)cc1 false
NC(N)=Nc1ccccc1Cl false
NC(N)=Nc1ccccc1[N+](=O)[O-] true
N=C(N)Nc1ccc(C(F)(F)F)cc1 true
NC(N)=Nc1cccc(Cl)c1 false

Hello, is Ki of the following compound strictly smaller than 400 µM? N=C(N)Nc1ccc(C(=O)O)cc1
false

Next entry: COc1ccccc1NC(=N)N
false

Same again, this time with N=C(N)Nc1ccc([N+](=O)[O-])cc1
true

Would you kindly repeat that for Cc1ccccc1NC(=N)N ?
false

And N=C(N)Nc1ccc(Cl)cc1 ?
true
